- system.under.test: Protein Mdm4 (Homo sapiens) + E3 ubiquitin-protein ligase Mdm2 (Homo sapiens) (UniProt O15151+Q00987)
- Sequence (O15151 whole entry, looked up): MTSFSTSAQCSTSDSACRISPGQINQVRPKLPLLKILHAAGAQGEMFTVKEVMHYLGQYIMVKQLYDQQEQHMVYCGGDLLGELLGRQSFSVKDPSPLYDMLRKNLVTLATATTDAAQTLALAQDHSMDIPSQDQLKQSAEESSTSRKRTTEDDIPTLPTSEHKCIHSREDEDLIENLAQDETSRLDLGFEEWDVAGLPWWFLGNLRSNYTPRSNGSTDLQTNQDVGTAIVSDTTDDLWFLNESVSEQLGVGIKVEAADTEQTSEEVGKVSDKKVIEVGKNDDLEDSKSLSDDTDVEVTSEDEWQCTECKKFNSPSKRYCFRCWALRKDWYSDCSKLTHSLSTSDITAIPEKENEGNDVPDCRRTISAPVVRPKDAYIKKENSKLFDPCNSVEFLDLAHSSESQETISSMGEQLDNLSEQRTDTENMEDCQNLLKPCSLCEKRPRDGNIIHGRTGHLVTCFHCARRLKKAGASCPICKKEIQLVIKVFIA
- Sequence (Q00987 whole entry, looked up): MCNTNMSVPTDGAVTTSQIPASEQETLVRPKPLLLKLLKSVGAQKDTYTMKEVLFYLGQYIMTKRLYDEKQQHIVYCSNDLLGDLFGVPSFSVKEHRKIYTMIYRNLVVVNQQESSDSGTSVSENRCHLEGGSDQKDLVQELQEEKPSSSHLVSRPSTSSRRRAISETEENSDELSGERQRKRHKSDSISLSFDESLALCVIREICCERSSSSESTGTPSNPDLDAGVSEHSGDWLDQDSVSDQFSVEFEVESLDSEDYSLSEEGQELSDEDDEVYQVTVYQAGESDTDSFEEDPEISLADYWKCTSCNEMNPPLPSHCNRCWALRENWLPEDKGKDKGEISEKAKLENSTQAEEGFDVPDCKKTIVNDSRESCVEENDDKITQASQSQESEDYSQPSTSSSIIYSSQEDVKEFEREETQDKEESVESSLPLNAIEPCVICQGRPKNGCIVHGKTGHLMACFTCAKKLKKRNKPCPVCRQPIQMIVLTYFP
- assay.summary: inhibitors of human Mdm2-MdmX association, primary screen, cell-based, luminescence, split luciferase, SaOS-2, uHTS (AID 485346)
- measurement.parameters: SaOS-2 split-luciferase Mdm2/MdmX complementation, at 8 µM, stronger effect = higher value
In all, about 330,000 compounds went through this assay and about 10,000 (3%) were called active. For the sample, actives were picked, then their nearest neighbours and some compounds at random.
measurement.type: inhibition

Supply inhibition value. Item: O=C(Nc1nonc1-c1ccc(Cl)cc1)c1ccco1
3.32% (inactive)

Supply inhibition value. Item: Cc1cccc([C@H]2[C@@H]3C=CC[C@@H](C)[C@@H]3C(=O)N2Cc2ccccc2)c1
16.7% (inactive)

Supply inhibition value. Item: Fc1ccc(N2N=C(c3cccs3)CC2c2ccco2)c(F)c1 (stereo not drawn)
2.13% (inactive)

Supply inhibition value. Item: COc1ccc(NC(=O)C(=O)NCC(=O)Nc2cccc(C(F)(F)F)c2)cc1
12.2% (inactive)

Supply inhibition value. Item: Brc1ccc(CN2CC[C@H]3C=CCc4cccc(c43)C2)cc1
3.41% (inactive)

Supply inhibition value. Item: CN(Cc1ccccc1)C(=O)c1cccc(C(=O)N(C)Cc2ccccc2)c1
-13.2% (inactive)

Supply inhibition value. Item: Cc1cccc(NC(=O)c2nnn(-c3cccc(C(F)(F)F)c3)c2N)c1
8% (inactive)

Supply inhibition value. Item: C=CCn1c(SCC(=O)NC)nnc1C12CC3CC(CC(C3)C1)C2
10.2% (inactive)

Supply inhibition value. Item: O=C(N[C@H]1C/C=C\C(c2cccc(F)c2)N(Cc2ccccc2)C(=O)C1)OCC1c2ccccc2-c2ccccc21 (stereo partly drawn)
2.78% (inactive)

Supply inhibition value. Item: Fc1ccccc1-c1cc2cc3c(cc2cn1)OCO3
-231% (inactive)

Supply inhibition value. Item: Cc1ccc2nc(NC(=O)C3CSC4(C)CCC(=O)N34)sc2c1 (stereo not drawn)
11.9% (inactive)

Supply inhibition value. Item: CC1C(=O)N(Cc2ccccc2)c2ccccc2N1C(=O)c1ccccc1 (stereo not drawn)
4.7% (inactive)

Supply inhibition value. Item: COc1cc2c(cc1NC(=O)CN1CCN(S(=O)(=O)c3ccc(F)cc3)CC1)oc1ccccc12
49.9% (inactive)

Supply inhibition value. Item: O=C(O)CCCn1c(=O)c2cccn2c2ccc(F)cc21
4.87% (inactive)

Supply inhibition value. Item: Cc1ccc(-c2cccc([C@H]3[C@@H]4C=CC[C@@H](C)[C@@H]4C(=O)N3Cc3ccccc3)c2)cc1
69.8% (active)

Supply inhibition value. Item: N#Cc1ccc(Oc2ccc(C(F)(F)F)cc2NC(=O)c2ccc(F)cc2)cc1
9.08% (inactive)

Supply inhibition value. Item: O=S1(=O)CCO[C@H]2Cc3ccccc3[C@H]2N1Cc1ccccc1
-0.566% (inactive)

Supply inhibition value. Item: COc1cc2c(cc1NC(=O)COC(=O)/C=C/c1ccccc1)oc1ccccc12
51.9% (active)

Hey, just so you know, these numbers are from PubChem BioAssay AID485346.
